pIC50 reference
- target: CDK2/Cyclin E1 (Homo sapiens)
- assayProcedure: CDK2/Cyclin E1 Caliper LabChip EZ Reader mobility shift assay
- Assay type: biochemical
- Set-up: purchased Eurofins 14-475
- settings: read-out: Caliper Assay (CDK2/CCNE1): IC50
pIC50: −log10 of the molar value.
recordedEndpoint: pIC50

>>> result("CNC(=O)[C@@H](NC(=O)[C@@H]1CN(C(=O)c2cnn(Cc3ccccc3)c2)CC12CN(C(=O)C1(C(F)(F)F)CC1)C2)[C@@H](C)OCc1ccccc1 [I-108A]")
"6.00 to 7.00"
>>> result("C[C@@H](OCC12CCC(CC1)OC2)[C@H](NC(=O)[C@@H]1CN(C(=O)c2cnco2)CC12CN(C(=O)[C@H]1CC1(C)C)C2)C(C)(C)O")
"6.00 to 7.00"
>>> result("C[C@@H](OCC1CCCCC1)[C@H](NC(=O)[C@@H]1CN(C(=O)c2cnn(Cc3ccccc3)c2)CC12CN(C(=O)[C@H]1CC1(C)C)C2)C(=O)N1CCC(CN)CC1")
"≥ 8.00"
